tested on: A-375; experiment: Cytotoxicity against human A375 cells measured after 24 hrs by MTT assay; assay type: functional, cell-based; settings: A-375, 24 h
PARAMETER_MEASURED: IC50

Field: example entries. Status: answers known.
INSERT INTO results (compound, observed_result) VALUES
  ('CCCCCCCCC[N+](C)(C)Cc1cc(O)c2c(c1)C(=O)c1cc(OC)cc(O)c1C2=O', '9.87 µM'),
  ('CCCCCCCCC[N+](C)(CCCCCCCC)Cc1cc(O)c2c(c1)C(=O)c1cc(OC)cc(O)c1C2=O.[Br-] (stereo not given)', '1.39 µM'),
  ('Cc1cc(O)c2c(c1)C(=O)c1cc(O)cc(O)c1C2=O [EMODIN]', '44.9 µM'),
  ('CCCCCCCCC[N+](C)(CCOCCOCCO)Cc1cc(OC)c2c(c1)C(=O)c1cc(OC)cc(OC)c1C2=O (stereo not given)', '28.9 µM');

// next entry
Qu. What value of measured IC50 is listed for CCCCCCCCCC[N+](C)(CCCCCCCCC)Cc1cc(O)c2c(c1)C(=O)c1cc(OC)cc(O)c1C2=O (stereo not given) ?
Ans. 2.2 µM

---

assay: Cytotoxicity against HELF cells measured after 24 hrs by MTT assay; format: cell-based; conditions: Homo sapiens
PARAMETER_MEASURED: IC50 (µM)
// note: answer is a bare numeric in µM

The cases that follow already have their IC50 on record.
INSERT INTO measurements (molecule, unit_label, observed_result) VALUES
  ('CCCCCCCCC[N+](C)(CCCCCCCC)Cc1cc(O)c2c(c1)C(=O)c1cc(OC)cc(O)c1C2=O.[Br-] (configuration not stated)', 'µM', 9.65),
  ('Cc1cc(O)c2c(c1)C(=O)c1cc(O)cc(O)c1C2=O', 'µM', 46.3),
  ('CCCCCCCC[N+](C)(CCCCCCCC)Cc1ccc2c(c1)C(=O)c1ccccc1C2=O', 'µM', 8.46),
  ('CCCCCCCC[N+](CCCCCCCC)(CCCCCCCC)Cc1cc(OC)c2c(c1)C(=O)c1cc(OC)cc(OC)c1C2=O', 'µM', 4.5);

Qu. Quick one: IC50 of CCCCCCCCC[N+](C)(C)Cc1cc(O)c2c(c1)C(=O)c1cc(OC)cc(O)c1C2=O ?
Ans. 21.6

---

tested on: A-375; assay: Cytotoxicity against human A375 cells measured after 24 hrs by MTT assay; assay type: functional, cell-based; settings: A-375, 24 h
Entries annotated with measured IC50
# output: bare number, implied unit µM

Worked set:
INSERT INTO results (smiles_input, observed_result) VALUES
  ('CC(=O)O[C@H]1C(=O)[C@@]2(C)[C@H]([C@H](OC(=O)c3ccccc3)[C@]3(O)C[C@H](OC(=O)[C@H](O)[C@@H](NC(=O)c4ccccc4)c4ccccc4)C(C)=C1C3(C)C)[C@]1(OC(C)=O)CO[C@@H]1C[C@@H]2O', 11.3),
  ('CCCCCCCCC[N+](C)(CCCCCCCCC)Cc1cc(O)c2c(c1)C(=O)c1cc(OC)cc(O)c1C2=O', 2.63);

Now, please, on to the next compound.
Qu. Any idea what IC50 was measured for CCCCCCCC[N+](CCCCCCCC)(CCCCCCCC)Cc1cc(OC)c2c(c1)C(=O)c1cc(OC)cc(OC)c1C2=O ?
Ans. 3.46

---

IC50 for assorted molecules
test: Cytotoxicity against HELF cells measured after 24 hrs by MTT assay; format: cell-based; settings: Homo sapiens
Output spec: scalar in µM, unitless text.

Use the examples below as a reference point.
INSERT INTO results (molecule, observed_result) VALUES
  ('CCCCCCCCCC[N+](C)(CCCCCCCCCC)Cc1ccc2c(c1)C(=O)c1ccccc1C2=O', 5.84),
  ('CCCCCCCCC[N+](C)(CCOCCOCCO)Cc1cc(OC)c2c(c1)C(=O)c1cc(OC)cc(OC)c1C2=O (centres undefined)', 40.4),
  ('CCCCCCCCC[N+](C)(CCCCCCCCC)Cc1cc(O)c2c(c1)C(=O)c1cc(OC)cc(O)c1C2=O', 9.83);

Proceed to the following item.
Qu. Need IC50, item CCCCCCCCCC[N+](C)(CCCCCCCCC)Cc1cc(O)c2c(c1)C(=O)c1cc(OC)cc(O)c1C2=O (centres undefined)
Ans. 9.56
